molecular target: Cytochrome P450 2C19 (Homo sapiens) (UniProt P33261); experiment: qHTS Assay for Inhibitors and Substrates of Cytochrome P450 2C19 (AID 899); conditions: recombinant CYP2C19, luciferin-H EGE luminescence; series mostly up to 57.1 µM; note: nearly all actives have a fitted effect of over 60% in size
Sequence (P33261 whole entry, looked up): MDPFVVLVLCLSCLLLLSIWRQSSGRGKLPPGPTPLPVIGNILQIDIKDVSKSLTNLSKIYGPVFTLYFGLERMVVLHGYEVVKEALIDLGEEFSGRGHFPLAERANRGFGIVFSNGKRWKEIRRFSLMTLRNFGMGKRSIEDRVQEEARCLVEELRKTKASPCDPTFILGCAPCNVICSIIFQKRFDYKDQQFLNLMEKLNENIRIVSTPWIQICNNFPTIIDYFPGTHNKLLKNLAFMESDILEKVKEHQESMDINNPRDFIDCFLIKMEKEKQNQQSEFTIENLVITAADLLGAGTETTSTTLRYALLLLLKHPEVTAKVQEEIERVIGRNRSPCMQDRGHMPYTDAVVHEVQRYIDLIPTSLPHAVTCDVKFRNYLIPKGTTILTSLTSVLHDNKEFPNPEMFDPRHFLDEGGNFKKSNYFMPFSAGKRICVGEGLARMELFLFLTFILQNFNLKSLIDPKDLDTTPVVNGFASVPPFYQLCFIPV
Inconclusive results are not listed. Activity calls are given as the source filed them. Calls come from the whole dose curve; as a rule, active = well fitted inhibition curve with a large enough effect; inconclusive = small, poorly fitted or top-dose-only effect; inactive = no such curve, though single readings can be large or run the other way.
Would you mind answering with one of these outcomes? active, inactive

What call does the record list for `CC1(C)Oc2ccc(C#N)cc2[C@H](N2CCCC2=O)[C@H]1O` ?
inactive

Test call, this molecule: `Cc1noc(C)c1-c1nc(NCCN2CCOCC2)c2ccccc2n1`
active

What classification did `COc1ccc2[nH]cc(CCNc3cc(-c4ccoc4)ncn3)c2c1` end up with in this test?
active

Record lookup: outcome of this test for `O=C(Oc1ccccc1)N1CCC[C@@]2(CCN(c3ccncc3)C2)C1` ?
active

Each molecule tested received a call. Report the one for `COc1cccc(Nc2ncc3ncc(=O)n(C)c3n2)c1` .
inactive

Please share the test call associated with `N#Cc1cccc(-c2nccc(-n3ccnc3)n2)c1` .
active

Please let me know the test result on file for `COc1ccccc1CNc1ccnc(-c2ccccc2Cl)n1` .
active

----------
biological target: 3',5'-cyclic-AMP phosphodiesterase 4B (Homo sapiens); assay: qHTS Assay for Inhibitors of PDE-IV (AID 607); conditions: HEK293 ACTOne CNG channel cells, membrane potential fluorescence; series mostly up to 22.9 µM; note: % of control where 0% means no effect
Records with an inconclusive call do not appear. Calls of active or inactive are those of the source. The call rests on the fitted dose curve; in most records, active means well fitted activation curve with a large enough effect in the main read-out, with a control signal flat (not every such curve was filed as active); inconclusive means small, poorly fitted or top-dose-only effect, or effect the other way, or a change in a side signal; inactive means flat fitted curve, though single readings scatter.
attribute-measured: outcome

Answered cases to consult:
compound-string: COc1cccc(Nc2ncc3nc(-c4cccs4)c(=O)n(-c4ccccc4)c3n2)c1
outcome: inactive
--
compound-string: COc1ccc2[nH]cc(CCNc3nc(-c4cccc(C#N)c4)nc4ccccc34)c2c1
outcome: inactive
--
compound-string: Cn1cccc1C(=O)N1CCC2(CCN(Cc3ccccc3)CC2)CC1
outcome: inactive
--
compound-string: c1ccc(C(c2ccccc2)N2CC3(CCNCC3)C2)cc1
outcome: inactive
--
compound-string: O=C(c1cccc(F)c1)N1CCC2(CCCN(c3ccccn3)C2)CC1
outcome: inactive

Quick note, outcome for `COc1ccc(-c2nc3cnc(OC)nc3n(C3CC3)c2=O)cc1` landed at inactive

Query `COc1ccc2[nH]cc(CCNc3ccnc(-c4ccc5c(c4)OCO5)n3)c2c1` yields outcome of inactive

outcome reported for this compound `O=C(c1cccc(F)c1)N1CCC[C@@]2(CCN(c3ccccn3)C2)C1` : inactive

In plain terms, `Cc1noc(C)c1C(=O)N1CCC2(CCCN(c3ccncc3)C2)CC1` has a documented outcome of inactive

Documented outcome of `Cn1cccc1C(=O)N1CCC[C@@]2(CCN(C(=O)Nc3cccc(C#N)c3)C2)C1` : inactive

----------
target: Glucocorticoid receptor (Homo sapiens); test: GR-GFP Redistribution (AID 450); conditions: U2OS GR-GFP nuclear translocation, laser cytometry, 2 h; note: potency is the fitted concentration of half-maximal effect
Active and inactive are the calls of the source.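 The calls were made as follows: active = compounds whose dose series gives a full or clear partial fitted curve of increased nuclear translocation; inconclusive = weak partial curve or effect only at the top dose; inactive = no dose-dependent translocation response.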
attribute-measured: Potency

compound-string: COCCn1c(=O)c(-c2cc(F)cc(F)c2)nc2cnc(OCc3ccccc3)nc21
observed-result: > 9.22 µM (inactive)
//
compound-string: CCNc1ncc2nc(-c3cccs3)c(=O)n(-c3ccccc3)c2n1
observed-result: > 9.22 µM (inactive)

Field Potency (system: Glucocorticoid receptor (Homo sapiens)) for entry `CN(C)CC/C=C1\c2ccccc2CSc2ccccc21` = > 20.6 µM (inactive)

For the compound `Cc1nc2cnc(N(C)C)nc2n(Cc2cccs2)c1=O` , the measured Potency on Glucocorticoid receptor (Homo sapiens) was > 9.22 µM (inactive)

Observed Potency on Glucocorticoid receptor (Homo sapiens), entry `CN1CCN(c2ncnc3ccc(-c4cccc(NS(C)(=O)=O)c4)cc23)CC1` , equals > 46 µM (inactive)

Field Potency (Glucocorticoid receptor (Homo sapiens)), entry `CN(C)C(=O)c1ccc(-c2nccc(NCc3ccccc3)n2)cc1` : > 46 µM (inactive)

The observed Potency for `CCNc1ncc2nc(-c3ccccc3)c(=O)n(-c3ccc(OC)cc3)c2n1` when tested with Glucocorticoid receptor (Homo sapiens) stands at > 9.22 µM (inactive)

Potency of `Cc1cnc(CNc2ncnc3ccc(-c4ccccc4C(F)(F)F)cc23)cn1` , assay on Glucocorticoid receptor (Homo sapiens), is > 46 µM (inactive)

The recorded Potency with Glucocorticoid receptor (Homo sapiens) for `Cc1cnc(CNc2ccnc(-c3cccnc3)n2)cn1` was > 46 µM (inactive)

For the compound `COCCn1c(=O)c(CCc2ccccc2)nc2cnc(N3CCOCC3)nc21` , the measured Potency on Glucocorticoid receptor (Homo sapiens) was > 9.22 µM (inactive)

Tested on Glucocorticoid receptor (Homo sapiens): `Cc1cccc(CNc2cc(-c3ccoc3)ncn2)c1` . Observed Potency: > 46 µM (inactive)

Observed Potency, Glucocorticoid receptor (Homo sapiens), `Cc1noc(C)c1-c1nccc(NCc2cccs2)n1` : > 46 µM (inactive)

Form field Potency for item `COc1ccc(-n2c(=O)c(C)nc3cnc(N(C)C)nc32)cc1` on Glucocorticoid receptor (Homo sapiens): > 9.22 µM (inactive)

Known value: Glucocorticoid receptor (Homo sapiens) Potency of the compound `Clc1ccccc1-c1nc(NCc2cccnc2)c2ccccc2n1` equals > 46 µM (inactive)

Potency value, target or system Glucocorticoid receptor (Homo sapiens), for `CN(Cc1ccco1)c1ccnc(-c2cccc(C#N)c2)n1` : > 46 µM (inactive)

`CN(C)c1ccc(-c2ccc3ncnc(NCc4ccccc4)c3c2)cc1` on Glucocorticoid receptor (Homo sapiens) gives Potency = > 46 µM (inactive)

----------
Biological target: Ubiquitin carboxyl-terminal hydrolase 1 (Homo sapiens) (UniProt O94782)
Sequence (O94782 whole entry, looked up): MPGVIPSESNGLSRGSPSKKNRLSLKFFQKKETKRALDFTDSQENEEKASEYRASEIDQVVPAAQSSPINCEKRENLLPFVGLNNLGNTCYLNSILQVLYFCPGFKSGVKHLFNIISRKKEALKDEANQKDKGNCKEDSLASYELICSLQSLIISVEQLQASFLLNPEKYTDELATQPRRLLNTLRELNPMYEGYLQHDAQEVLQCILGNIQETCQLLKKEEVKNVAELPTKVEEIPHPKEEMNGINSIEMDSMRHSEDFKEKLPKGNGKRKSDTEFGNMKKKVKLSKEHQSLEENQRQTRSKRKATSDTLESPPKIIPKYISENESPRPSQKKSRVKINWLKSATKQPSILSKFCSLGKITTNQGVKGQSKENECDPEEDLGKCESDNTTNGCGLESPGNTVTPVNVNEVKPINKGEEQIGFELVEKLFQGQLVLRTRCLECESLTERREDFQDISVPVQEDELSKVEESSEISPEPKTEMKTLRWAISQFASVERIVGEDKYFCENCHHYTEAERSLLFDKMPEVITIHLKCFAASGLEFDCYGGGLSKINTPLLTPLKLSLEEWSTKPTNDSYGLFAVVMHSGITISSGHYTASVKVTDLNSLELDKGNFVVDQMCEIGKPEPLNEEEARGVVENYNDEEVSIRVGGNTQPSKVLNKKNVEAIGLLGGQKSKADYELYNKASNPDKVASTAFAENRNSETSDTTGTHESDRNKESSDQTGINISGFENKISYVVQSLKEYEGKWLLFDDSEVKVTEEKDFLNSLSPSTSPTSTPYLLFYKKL
Test: Inhibitors of USP1/UAF1: Pilot qHTS (AID 504865);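 note: rhodamine fluorescence freed from ubiquitin-rhodamine substrate followed over time; top concentration of the series differs between compounds; % is set by controls: 0 for no effect and ±100 for the full control effect; nearly all actives have a fitted effect of over 35% in size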
Conditions: purified USP1/UAF1, Ub-rhodamine cleavage fluorescence; series mostly up to 54.9 µM
From the text: Deubiquitinating enzymes (DUBs) are a class of enzymes that can cleave isopeptide bond formed between the C-terminal carboxylate of ubiquitin and a lysine side-chain amino group on the target protein. Among them, ubiquitin specific proteases (USPs) constitute the largest DUB family. […]
Inconclusive results are not listed. Active and inactive are the calls of the source. Calls come from the whole dose curve; as a rule, active = well fitted inhibition curve with a large enough effect; inconclusive = small, poorly fitted or top-dose-only effect; inactive = flat fitted curve, though single readings scatter.
The reply should be one of these categories: 1 = active, -1 = inactive

Past entries and their recorded results:
molecule: Clc1ccccc1-c1ccc2ncnc(NC3CCNCC3)c2c1
target-or-system: Ubiquitin carboxyl-terminal hydrolase 1 (Homo sapiens) (UniProt O94782)
category-label: -1

molecule: COc1cc(C/C=C/c2ccccc2)c(OC)cc1O
target-or-system: Ubiquitin carboxyl-terminal hydrolase 1 (Homo sapiens) (UniProt O94782)
category-label: -1

molecule: COc1cccc(Cn2c(=O)c(-c3ccc(Cl)cc3)nc3cnc(N4CCN(C)CC4)nc32)c1
target-or-system: Ubiquitin carboxyl-terminal hydrolase 1 (Homo sapiens) (UniProt O94782)
category-label: -1

molecule: COc1ccccc1-c1ccc2ncnc(NCCNC(C)=O)c2c1
target-or-system: Ubiquitin carboxyl-terminal hydrolase 1 (Homo sapiens) (UniProt O94782)
category-label: -1

molecule: Cc1noc(C)c1-c1nc(NC2CCNCC2)c2ccccc2n1
target-or-system: Ubiquitin carboxyl-terminal hydrolase 1 (Homo sapiens) (UniProt O94782)
category-label: -1

For this molecule, state the assay outcome: `Cc1noc(C)c1-c1nc(Nc2ccc(F)cc2)c2ccccc2n1`
-1

Give the logged outcome of this assay for the following molecule: `Cc1noc(C)c1-c1ccc2ncnc(NCCN3CCOCC3)c2c1`
-1

Kindly provide the recorded test outcome for the following molecule: `Cn1c(=O)c(-c2ccc(F)cc2)nc2cnc(OCc3ccccc3)nc21`
-1

Fill in: this test's call for `CN(C)[C@@H]1C(=O)C(C(N)=O)=C(O)[C@]2(O)C(=O)C3=C(O)c4c(O)ccc(Cl)c4[C@H](O)[C@H]3C[C@@H]12` is ___
-1

Recorded test call requested for `Cc1cccc(CNc2ncncc2-c2cccc(NS(C)(=O)=O)c2)c1`
-1

----------
Assay: AP1 Signaling Pathway (AID 357);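 note: ME-180 reporter cells stimulated with EGF at its EC50 level; % is set by controls: 0 for no effect and ±100 for the full control effect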
Settings: ME-180 (cervical carcinoma) AP-1-bla reporter, EGF-induced, beta-lactamase ratio, 5 h; at 7.69 µM (top of the series) unless noted
Procedure: NCGC Assay Overview: Activator protein-1 (AP-1), a transcription factor, plays an important role in tumor genesis by regulating genes involved in cell proliferation, differentiation, apoptosis, and angiogenesis. AP-1 activity is induced by a complex network of signaling pathways that involves extracellular signals, such as growth factors. […] Library compounds were measured for their ability to modulate positively or negatively the action of EC50 EGF on reporter gene activity. […]
Inconclusive results are not listed.
attribute-measured: activity change, negative = inhibition (%)
Write down the numeric answer in % and omit the unit.

Worked examples follow.
compound-string: O=C(c1cccc(F)c1)N1CCC2(CCCN(c3ccccc3)C2)CC1
unit: %
observed-result: -4.36

compound-string: COc1ccccc1-c1ccc2ncnc(NCc3ccccc3)c2c1
unit: %
observed-result: -25.6

compound-string: COc1ccc(-n2c(=O)cnc3cnc(Nc4ccccc4)nc32)cc1
unit: %
observed-result: -13.4

compound-string: COc1ccc2[nH]cc(CCNc3ncncc3-c3cccnc3)c2c1
unit: %
observed-result: 9.96

compound-string: COCC(=O)N1CCC[C@@]2(CCN(C(=O)Nc3ccccc3)C2)C1
unit: %
observed-result: -5.16

Please fill in: activity change, negative = inhibition reported for `N#Cc1cccc(NC(=O)N2CCCC3(CCN(C(=O)c4ccco4)CC3)C2)c1` = -14.7

Measured activity change, negative = inhibition of `CN(C)c1ncnc2ccc(-c3cccc(C#N)c3)cc12` : -26.8

The measured activity change, negative = inhibition associated with `COc1ccc(CNc2ccnc(-c3ccccc3OC)n2)c(OC)c1` reads 3.33

Recorded result, `Cc1cnc(CNc2cc(-c3ccc(C(=O)N(C)C)cc3)ncn2)cn1` , activity change, negative = inhibition: 19.2

Sample `COc1ccccc1CN1CCC2(CC1)CCN(C(=O)c1c(C)noc1C)CC2` ; activity change, negative = inhibition observed: 4.81

activity change, negative = inhibition measured on `CN1CCN(c2ncncc2-c2ccoc2)CC1` = -0.0355

Query `Cc1noc(C)c1-c1nc(Nc2ccc(F)cc2)c2ccccc2n1` yields activity change, negative = inhibition of -5.88

In plain terms, `CCNc1ncc2nc(-c3cccs3)c(=O)n(Cc3cccc(OC)c3)c2n1` has a documented activity change, negative = inhibition of 19.3

So, `COc1ccc(Oc2ncc3ncc(=O)n(Cc4cccc(OC)c4)c3n2)cc1` ? Its activity change, negative = inhibition was -25.4

Lab note: `COc1ccc(C(=O)N2CCC3(CC2)CCN(c2cccc(-c4ccccc4)c2)CC3)cc1` gave activity change, negative = inhibition of 10.6

Kindly note the recorded activity change, negative = inhibition for `COc1ccc(Oc2ncc3ncc(=O)n(CCC#N)c3n2)cc1` , which is -11.3

Lab book: activity change, negative = inhibition of `COc1ccc(NC(=O)N2CC3(CCNCC3)C2)cc1` noted as 7.88

# activity change, negative = inhibition of `COc1ccccc1CN1CC[C@@]2(CCCN(C(=O)c3ccco3)C2)C1` = -2.43

// sample `COC(=O)N1CCC2(CCCN(Cc3ccccc3)C2)CC1` , its activity change, negative = inhibition was -5.44

Record `COCCn1c(=O)c(C)nc2cnc(OC)nc21` , field activity change, negative = inhibition: -9.91

// `COc1cccc(Cn2c(=O)c(C)nc3cnc(Oc4ccccc4)nc32)c1` : activity change, negative = inhibition value = -12.2

Short answer for `N#Cc1ccc(CN2CC3(CCN(C(=O)c4cccc(F)c4)CC3)C2)cc1` : activity change, negative = inhibition was 20.2

Lab note: `Cc1cccc(CNc2cc(-c3ccccc3C)ncn2)c1` gave activity change, negative = inhibition of 13.4
